For each of the molecules below, state its IC50.
Tested on: YAP/TAZ-TEAD transcription
Assay: Reporter gene assay for measuring the inhibition of YAP/TAZ-TEAD transcription (TEAD-responsive element luciferase reporter in Hek293T cells)
Format: cell-based
Settings: Homo sapiens, HEK-293T, 24 h, 24 hours incubation

Provide the reported IC50 of each entry below, same order.
1. CC(=O)N[C@@H]1C[C@@H]2CN(c3ccc(C(F)(F)F)cc3)c3cccnc3N2C1 [70-D1]
2. O=C(O)C1CCN2c3c(Cl)cccc3N(c3ccc(C(F)(F)F)cc3)CC2C1 (stereo not shown)
3. CC(=O)NCC1CN(c2ccc(C(F)(F)F)cc2)c2ccc(OC(F)F)nc2O1 (stereo not shown)
4. C=CC(=O)N1CCN2c3ncccc3N(c3ccc(C(F)(F)F)cc3)CC2C1 (stereo not shown)

Out:
1. < 1000 nM
2. < 1000 nM
3. 1000 to 10000 nM
4. < 1000 nM

----------
System: YAP/TAZ-TEAD transcription
Assay: Reporter gene assay for measuring the inhibition of YAP/TAZ-TEAD transcription (TEAD-responsive element luciferase reporter in Hek293T cells)
Format: cell-based
Conditions: Homo sapiens, HEK-293T, 24 h, 24 hours incubation
pIC50: −log10 of the molar value.
Please respond with reported pIC50 for every item in the list.

Record excerpt, results attached:
| COMPOUND | SYSTEM_UNDER_TEST | pIC50 |
| --- | --- | --- |
| CC(=O)NCCN1CCN(c2ccc(C(F)(F)F)cc2)c2ccccc21 | YAP/TAZ-TEAD transcription | > 6.00 |
| N#C[C@@H]1C[C@@H]2CN(c3ccc(C(F)(F)F)cc3)c3cccnc3N2C1 | YAP/TAZ-TEAD transcription | < 5.00 |
| C=CC(=O)NCC1CN(c2ccc(C(F)(F)F)cc2)c2ccccc2N1CC#N (stereo not drawn) | YAP/TAZ-TEAD transcription | > 6.00 |

Go through the list and state pIC50 for each entry.
1. FC(F)(F)c1ccc(N2CCN(Cc3nnc[nH]3)c3ccccc32)cc1
2. C=CC(=O)NCC1CN(c2ccc(C(F)(F)F)cc2)c2ccccc2N1CCC(N)=O (stereo not drawn)
3. O=C(O)[C@@H]1C[C@@H]2CN(c3ccc(C(F)(F)F)cc3)c3cccnc3N2C1
4. CC(=O)N1CCN2c3ccccc3N(c3ccc(C(F)(F)F)cc3)CC2C1 (stereo not drawn)
5. FC(F)(F)c1ccc(N2CCN(Cc3ncc[nH]3)c3ccccc32)cc1
6. O=C(O)CC(=O)N[C@@H]1C[C@@H]2CN(c3ccc(C(F)(F)F)cc3)c3cccnc3N2C1
7. CC(=O)N1CC(N2CCN(c3ccc(C(F)(F)F)cc3)c3ccccc32)C1

Out:
["> 6.00", "> 6.00", "> 6.00", "> 6.00", "> 6.00", "5.00 to 6.00", "> 6.00"]

----------
Give IC50 for every item shown.
System: YAP/TAZ-TEAD transcription
Test: Reporter gene assay for measuring the inhibition of YAP/TAZ-TEAD transcription (TEAD-responsive element luciferase reporter in Hek293T cells)
Type: cell-based
Settings: Homo sapiens, HEK-293T, 24 h, 24 hours incubation

| MOLECULE | SYSTEM_UNDER_TEST | IC50 |
| --- | --- | --- |
| CC(=O)NCC1CN(c2ccc(C(F)(F)F)cc2)c2ccccc2N1 (single isomer, unassigned) | YAP/TAZ-TEAD transcription | < 1 µM |

Fill in IC50 for each of the 4 molecules listed.
1. O=C(O)C1(F)CCN2c3ccccc3N(c3ccc(C(F)(F)F)cc3)CC2C1 (stereo not shown) [123-D1]
2. CC(=O)NCC1CN(c2ccc(C(F)(F)F)cc2)c2ccc(C#N)nc2O1 (single isomer, unassigned)
3. CC(=O)N1CCN2c3nccnc3N(c3ccc(C(F)(F)F)cc3)CC2C1 (stereo not shown)
4. CC(=O)N[C@@H]1C[C@@H]2CN(c3ccc(C(F)(F)F)cc3)c3cc(Cl)cnc3N2C1

Out:
1. < 1 µM
2. 1 to 10 µM
3. < 1 µM
4. < 1 µM

For every listed record, write down its IC50.
1. CC(=O)NCC1CN(c2ccc(C(F)(F)F)cc2)c2ccc(C3CC3)nc2O1 (single isomer, unassigned)
2. C[C@@H](O)C(=O)N[C@@H]1C[C@@H]2CN(c3ccc(C(F)(F)F)cc3)c3cccnc3N2C1
3. CC(=O)NCC1CN(c2ccc(C(F)(F)F)cc2)c2ccccc2O1 (stereo not shown)

Out:
1. < 1 µM
2. < 1 µM
3. < 1 µM

Below are 3 molecules. Give each one its IC50.
1. CN1CCN2c3ccccc3N(c3ccc(C(F)(F)F)cc3)CC2C1 (stereo not shown)
2. C=CC(=O)N1CCN2c3nccnc3N(c3ccc(C(F)(F)F)cc3)CC2C1 (stereo not shown)
3. O=C1CN(c2ccc(C(F)(F)F)cc2)c2ccccc2N1Cc1cn[nH]c1

Out:
1 to 10 µM
< 1 µM
< 1 µM

Kindly give each listed record's IC50.
1. CC(=O)NCC1CN(c2ccc(C(F)(F)F)cc2)c2ccc(N(C)C)nc2O1 (stereo not shown)
2. FC(F)(F)c1ccc(N2CCN(Cc3cn[nH]c3)c3ccccc32)cc1
3. Cc1ccc(Nc2ccc(C(F)(F)F)cc2)c(N2CCC(C(=O)O)CC2)n1
4. CC(=O)NCC1CN(c2ccc(C(F)(F)F)cc2)c2ccccc2N1CCC(=O)O (stereo not shown)
5. CNS(=O)(=O)N1CCN2c3ccccc3N(c3ccc(C(F)(F)F)cc3)CC2C1 (stereo not shown)

Out:
< 1 µM
< 1 µM
< 1 µM
> 10 µM
< 1 µM

Would you be so kind as to report IC50 for each listed record?
1. O=C(O)C1CCN2c3ncccc3N(c3ccc(C(F)(F)F)cc3)CC2C1 (single isomer, unassigned) [96A]
2. C=CC(=O)NCC1CN(c2ccc(C(F)(F)F)cc2)c2ccccc2N1CCC(=O)NC (stereo not shown)

Out:
1. < 1 µM
2. < 1 µM

Please state IC50 for every molecule in the list that follows.
1. C=CC(=O)NCC1CN(c2ccc(C(F)(F)F)cc2)c2ccccc2N1 (stereo not shown)
2. CC(=O)NCC1CN(c2ccc(C(F)(F)F)cc2)c2ccc(C)nc2O1 (stereo not shown)

Out:
< 1 µM
< 1 µM

Record IC50 for all entries; do not skip any.
1. C=CC(=O)NCC1CN(c2ccc(C(F)(F)F)cc2)c2cccnc2O1 (stereo not shown)
2. CNC(=O)O[C@@H]1C[C@@H]2CN(c3ccc(C(F)(F)F)cc3)c3cccnc3N2C1
3. FC(F)(F)c1ccc(N2CCN(Cc3cnco3)c3ccccc32)cc1
4. O=C(c1cn[nH]c1)N1CCN(c2ccc(C(F)(F)F)cc2)c2ccccc21
5. C=CC(=O)N1CCN2CCN(c3ccc(C(F)(F)F)cc3)CC2C1 (stereo not shown)
6. FC(F)(F)c1ccc(N2CCN(Cc3cnc[nH]3)c3ccccc32)cc1
7. FC(F)(F)c1ccc(N2CC3CN(c4ncco4)CCN3c3ccccc32)cc1 (stereo not shown)

Out:
< 1 µM
< 1 µM
< 1 µM
< 1 µM
< 1 µM
< 1 µM
> 10 µM

In: Can you share its IC50? I mean this molecule: CC(=O)NCC1CN(c2ccc(C(F)(F)F)cc2)c2ccccc2N1C (stereo not shown)
Out: 1 to 10 µM

----------
Test system: YAP/TAZ-TEAD transcription
Assay: Reporter gene assay for measuring the inhibition of YAP/TAZ-TEAD transcription (TEAD-responsive element luciferase reporter in Hek293T cells)
Format: cell-based
Conditions: Homo sapiens, HEK-293T, 24 h, 24 hours incubation
Description: Example 56: Activity of Compounds of the Disclosure in a Reporter Gene Assay for Measuring the Inhibition of YAP/TAZ-TEAD Transcription Hek293T cells were cultured in DMEM supplemented with 10% fetal bovine serum, Sodium pyruvate, Sodium bicarbonate, L-glutamine. The cells were harvested and transiently transfected with TEAD-responsive element luciferase reporter. […] The plate was shaken for 10 min at 600 rpm, centrifuged for 1 min at 500 rpm and measured with an Envision reader (PerkinElmer). […]
pIC50: −log10 of the molar value.
Could you please report measured pIC50 for the items listed next?

Illustrative cases are given below, each with its answer.
| COMPOUND | SYSTEM_UNDER_TEST | RECORDED_VALUE |
| --- | --- | --- |
| CC(=O)NCC1CN(c2ccc(C(F)(F)F)cc2)c2ccccc2N1CC#N (stereo not drawn) [compound 4] | YAP/TAZ-TEAD transcription | 5.00 to 6.00 |
| CCc1ccc2c(n1)OC(CNC(C)=O)CN2c1ccc(C(F)(F)F)cc1 (stereo not drawn) [compound 82] | YAP/TAZ-TEAD transcription | > 6.00 |
| O=C(O)CN1CCN2c3ccccc3N(c3ccc(C(F)(F)F)cc3)CC2C1 (stereo not drawn) [compound 31] | YAP/TAZ-TEAD transcription | 5.00 to 6.00 |
| C=CC(=O)NCC1CN(c2ccc(C(F)(F)F)cc2)c2ccccc2N1CCO (stereo not drawn) [compound 1] | YAP/TAZ-TEAD transcription | > 6.00 |
| CC(C)(O)C(=O)N[C@@H]1C[C@@H]2CN(c3ccc(C(F)(F)F)cc3)c3cccnc3N2C1 [compound 110] | YAP/TAZ-TEAD transcription | > 6.00 |

Then there is this compound:
In: Using the record for CC(=O)NCC1CN(c2ccc(C(F)(F)F)cc2)c2ccc(Br)nc2O1 (single isomer, unassigned) [compound 122] , report its pIC50.
Out: > 6.00
